Kindly state pKi for each of the entries shown.
pKi is defined as minus the log10 of a concentration measured in mol/L.

INPUT: Give reported pKi for NC[C@H](O)c1ccc(O)c(O)c1 [(-)Norepinephrine] (5HT5a receptor)
OUTPUT: 2.80

INPUT: Give reported pKi for O=C(c1ccc(F)cc1)C1CCN(CCn2c(=O)[nH]c3ccccc3c2=O)CC1 (5HT5a receptor)
OUTPUT: 4.80

INPUT: Give reported pKi for NCCc1ccc(O)c(O)c1 (5HT5a receptor)
OUTPUT: 4.10
